ASSAY SYSTEM: Protein Wnt-3a (Mus musculus, UniProt P27467)
Sequence (P27467 whole entry): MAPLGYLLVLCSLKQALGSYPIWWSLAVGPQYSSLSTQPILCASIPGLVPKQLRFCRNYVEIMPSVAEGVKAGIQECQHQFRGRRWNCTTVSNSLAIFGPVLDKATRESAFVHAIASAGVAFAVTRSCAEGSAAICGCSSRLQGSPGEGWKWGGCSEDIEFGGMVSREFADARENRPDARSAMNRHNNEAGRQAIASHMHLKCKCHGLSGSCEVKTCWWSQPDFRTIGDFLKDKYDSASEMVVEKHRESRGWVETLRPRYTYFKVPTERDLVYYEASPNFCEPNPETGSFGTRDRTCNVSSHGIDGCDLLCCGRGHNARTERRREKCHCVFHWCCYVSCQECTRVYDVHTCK
MEASUREMENT NOTES: Wnt3a-driven reporter signaling inhibition, dose response, selectivity assay for Gli-SUFU antagonist project, Wnt-LIGHT cells, luminescence (AID 651570);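 also: Wnt-LIGHT reporter cells stimulated with conditioned medium from Wnt3a-producing cells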
Type: functional
CONDITION: read-out: IC50_Mean
Active and inactive are the calls of the source.
Hi there, I'd appreciate the recorded IC50 for every entry that follows.

Data request: Give the reported IC50 for this molecule. O=C(Cc1ccc(Cl)cc1Cl)Nc1ccncc1
Data returned: 3600 nM (active)

Data request: Give the reported IC50 for this molecule. C[n+]1c2n(c3ccccc31)N=C(c1ccc(-c3ccccc3)cc1)CS2
Data returned: 736 nM (active)

Data request: Give the reported IC50 for this molecule. Cn1c(=O)c2c(nc(NCCOc3ccc(C(C)(C)C)cc3)n2C)n(C)c1=O
Data returned: 1200 nM (active)

Data request: Give the reported IC50 for this molecule. Cc1sc2ncnc(NCC3COc4ccccc4O3)c2c1C (stereo not given)
Data returned: 441 nM (active)

Data request: Give the reported IC50 for this molecule. Cc1c(C(C)C)c(=O)n(-c2ccc(S(=O)(=O)NCc3ccccc3)cc2)n1C
Data returned: 5020 nM (active)

----------
ASSAY SYSTEM: FAD-linked sulfhydryl oxidase ALR (Homo sapiens, UniProt P55789)
Sequence (P55789 whole entry): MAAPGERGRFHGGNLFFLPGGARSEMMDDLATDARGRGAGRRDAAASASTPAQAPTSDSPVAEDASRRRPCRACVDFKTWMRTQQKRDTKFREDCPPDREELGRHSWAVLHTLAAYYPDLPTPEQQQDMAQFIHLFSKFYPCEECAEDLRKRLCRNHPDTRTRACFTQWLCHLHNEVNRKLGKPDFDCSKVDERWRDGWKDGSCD
MEASUREMENT NOTES: inhibitors of human ALR sulfhydryl oxidase, dose response, biochemical, H2O2 detection, luminescence, cherry-pick (AID 493248)
Calls of active or inactive are those of the source.
Select the matching outcome among active, inactive

Data request: Returns: the outcome recorded for CCc1nn(C)c(-c2nnc(S)n2N)c1Cl in this assay.
Data returned: active

Data request: Returns: the outcome recorded for Nn1c(S)nnc1Cc1ccccc1 in this assay.
Data returned: active

Data request: Returns: the outcome recorded for O=C(C1CC1)N1CCN=C1SCc1ccccc1Cl in this assay.
Data returned: active

Data request: Returns: the outcome recorded for NS(=O)(=O)c1ccc(-c2ccc(C=C3C(=O)NC(=O)NC3=O)o2)cc1 in this assay.
Data returned: active

Data request: Returns: the outcome recorded for O=C(NCc1cccnc1)c1ccc(COc2ccccc2Cl)cc1 in this assay.
Data returned: active

Data request: Returns: the outcome recorded for O=[N+]([O-])c1ccc(-c2cn(-c3ccccc3F)c(=S)[nH]2)cc1 in this assay.
Data returned: inactive

Data request: Returns: the outcome recorded for COc1cc(/C=C2/SC(=O)NC2=O)ccc1Oc1ccc([N+](=O)[O-])cc1[N+](=O)[O-] in this assay.
Data returned: active

Data request: Returns: the outcome recorded for O=C(CCN1CCN(C(c2ccccc2)c2ccccc2)CC1)N/N=C/c1ccc(O)cc1 in this assay.
Data returned: active

Data request: Returns: the outcome recorded for COc1cc(/C=N/NC(=O)c2cccc(S(=O)(=O)N3CCCC3)c2)ccc1O in this assay.
Data returned: active

Data request: Returns: the outcome recorded for Nc1cccc(/C=C/c2ccncc2)c1 in this assay.
Data returned: active

Data request: Returns: the outcome recorded for COc1cc(/C=C2/C(=O)NN(c3ccccc3)C2=O)cc(Br)c1O in this assay.
Data returned: active

----------
ASSAY SYSTEM: ATP-dependent molecular chaperone HSP82 (Candida albicans (strain WO-1) (Yeast), UniProt C4YTQ8)
Sequence (C4YTQ8 whole entry): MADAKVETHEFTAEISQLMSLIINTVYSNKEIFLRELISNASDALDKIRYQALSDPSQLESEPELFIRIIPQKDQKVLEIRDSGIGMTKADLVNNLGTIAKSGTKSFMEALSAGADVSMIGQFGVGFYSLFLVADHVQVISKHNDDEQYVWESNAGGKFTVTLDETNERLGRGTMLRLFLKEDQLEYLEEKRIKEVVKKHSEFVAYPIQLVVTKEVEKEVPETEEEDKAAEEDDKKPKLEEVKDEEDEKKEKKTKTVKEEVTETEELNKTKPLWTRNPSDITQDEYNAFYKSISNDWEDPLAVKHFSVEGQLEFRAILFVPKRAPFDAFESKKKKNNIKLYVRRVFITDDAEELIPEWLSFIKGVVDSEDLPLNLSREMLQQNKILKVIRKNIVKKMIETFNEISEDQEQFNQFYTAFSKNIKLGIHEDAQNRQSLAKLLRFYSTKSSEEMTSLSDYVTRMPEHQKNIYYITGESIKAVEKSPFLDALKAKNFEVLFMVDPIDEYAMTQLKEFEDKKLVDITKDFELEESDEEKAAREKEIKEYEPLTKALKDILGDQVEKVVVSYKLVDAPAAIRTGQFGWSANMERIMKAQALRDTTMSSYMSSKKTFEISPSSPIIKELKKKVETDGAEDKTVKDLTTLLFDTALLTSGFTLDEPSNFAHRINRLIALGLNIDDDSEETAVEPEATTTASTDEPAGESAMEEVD
MEASUREMENT NOTES: loss of DOC-induced GRE-beta-galactosidase reporter signal, dose response, Hsp90 inhibitor project, S. cerevisiae, luminescence (AID 2400);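 also: beta-galactosidase luminescence from glucocorticoid response element reporter as proxy for Hsp90 function; inhibitor potency where signal loss means Hsp90 inhibition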
Type: functional, cell-based
Active and inactive are the calls of the source.
Select the matching outcome among Y (active), N (inactive)

Data request: Returns: the outcome recorded for Cc1ccc(OCC(=O)NNC(=S)NC(=O)C2CC2)c(C)c1 in this assay.
Data returned: Y

Data request: Returns: the outcome recorded for CCC(=O)NC(c1cccs1)c1cc(Cl)c2cccnc2c1O (centres undefined) in this assay.
Data returned: N

Data request: Returns: the outcome recorded for CCOC(=O)c1c(-c2ccccc2Cl)cn2ccccc12 in this assay.
Data returned: Y

Data request: Returns: the outcome recorded for C[n+]1c2n(c3ccccc31)N=C(c1ccc(-c3ccccc3)cc1)CS2 in this assay.
Data returned: N

----------
Hi there, I'd appreciate the recorded EC50 for every entry that follows.
ASSAY SYSTEM: Peroxisome proliferator-activated receptor gamma/Nuclear receptor coactivator 3 (Homo sapiens, UniProt P37231);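 also: agonist potency for raising coactivator recruitment to the receptor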
Sequence (Q9Y6Q9 whole entry, one chain of several, further chain): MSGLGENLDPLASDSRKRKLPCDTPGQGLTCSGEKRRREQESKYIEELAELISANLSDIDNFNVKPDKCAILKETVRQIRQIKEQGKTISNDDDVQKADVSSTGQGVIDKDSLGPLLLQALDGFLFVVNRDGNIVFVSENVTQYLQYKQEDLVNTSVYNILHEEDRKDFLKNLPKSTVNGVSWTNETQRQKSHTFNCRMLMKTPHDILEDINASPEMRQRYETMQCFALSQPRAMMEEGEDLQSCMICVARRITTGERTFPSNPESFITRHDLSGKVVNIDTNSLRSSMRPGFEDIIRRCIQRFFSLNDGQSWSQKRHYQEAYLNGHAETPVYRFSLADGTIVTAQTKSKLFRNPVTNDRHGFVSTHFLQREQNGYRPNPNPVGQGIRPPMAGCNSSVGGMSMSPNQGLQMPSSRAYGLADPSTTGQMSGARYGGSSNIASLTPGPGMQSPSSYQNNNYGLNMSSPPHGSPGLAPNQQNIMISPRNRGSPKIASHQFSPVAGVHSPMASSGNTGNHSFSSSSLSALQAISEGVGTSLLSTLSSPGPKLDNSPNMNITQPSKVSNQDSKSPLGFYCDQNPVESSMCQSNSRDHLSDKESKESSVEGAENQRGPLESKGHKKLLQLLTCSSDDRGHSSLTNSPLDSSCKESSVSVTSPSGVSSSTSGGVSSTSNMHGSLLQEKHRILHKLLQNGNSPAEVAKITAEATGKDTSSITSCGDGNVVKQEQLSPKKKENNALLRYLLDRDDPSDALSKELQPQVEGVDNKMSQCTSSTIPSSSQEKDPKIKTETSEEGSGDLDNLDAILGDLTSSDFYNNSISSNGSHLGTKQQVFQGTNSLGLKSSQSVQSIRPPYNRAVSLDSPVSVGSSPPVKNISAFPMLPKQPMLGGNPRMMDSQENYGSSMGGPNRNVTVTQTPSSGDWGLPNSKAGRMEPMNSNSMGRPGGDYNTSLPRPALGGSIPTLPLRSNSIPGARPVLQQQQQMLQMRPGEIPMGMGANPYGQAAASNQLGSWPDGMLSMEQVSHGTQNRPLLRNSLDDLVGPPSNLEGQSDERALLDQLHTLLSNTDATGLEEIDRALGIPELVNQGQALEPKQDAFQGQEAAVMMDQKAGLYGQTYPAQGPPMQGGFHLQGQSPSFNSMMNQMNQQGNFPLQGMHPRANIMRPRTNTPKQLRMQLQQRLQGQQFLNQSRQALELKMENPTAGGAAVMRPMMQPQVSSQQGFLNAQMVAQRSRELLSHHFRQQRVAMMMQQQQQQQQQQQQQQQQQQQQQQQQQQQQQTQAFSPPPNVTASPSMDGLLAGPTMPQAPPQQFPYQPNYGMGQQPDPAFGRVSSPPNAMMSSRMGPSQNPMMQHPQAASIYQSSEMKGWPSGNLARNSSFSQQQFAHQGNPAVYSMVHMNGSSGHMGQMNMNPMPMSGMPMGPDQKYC
Format: functional

Data request: Give the reported EC50 for this molecule. CC(C)OC(=O)CSc1nc2cc3c(cc2cc1C#N)OCO3
Data returned: 18.3 µM (not active)

Data request: Give the reported EC50 for this molecule. O=C(Cc1nc2ccccc2nc1O)c1ccccc1
Data returned: > 79.4 µM (not active)

Data request: Give the reported EC50 for this molecule. CCOC(=O)c1s/c(=N\C(=O)c2ccc(OC)c(OC)c2)n(C)c1C
Data returned: 11.4 µM (not active)

Data request: Give the reported EC50 for this molecule. O=C(Nc1cccc(NS(=O)(=O)c2ccc(S(=O)(=O)NC3CC3)cc2)c1)c1ccccn1
Data returned: > 79.4 µM (not active)

----------
Hi there, I'd appreciate the recorded EC50 for every entry that follows.
ASSAY SYSTEM: Peroxisome proliferator-activated receptor gamma/Nuclear receptor coactivator 1 (Homo sapiens, UniProt P37231)
Sequence (P37231 whole entry): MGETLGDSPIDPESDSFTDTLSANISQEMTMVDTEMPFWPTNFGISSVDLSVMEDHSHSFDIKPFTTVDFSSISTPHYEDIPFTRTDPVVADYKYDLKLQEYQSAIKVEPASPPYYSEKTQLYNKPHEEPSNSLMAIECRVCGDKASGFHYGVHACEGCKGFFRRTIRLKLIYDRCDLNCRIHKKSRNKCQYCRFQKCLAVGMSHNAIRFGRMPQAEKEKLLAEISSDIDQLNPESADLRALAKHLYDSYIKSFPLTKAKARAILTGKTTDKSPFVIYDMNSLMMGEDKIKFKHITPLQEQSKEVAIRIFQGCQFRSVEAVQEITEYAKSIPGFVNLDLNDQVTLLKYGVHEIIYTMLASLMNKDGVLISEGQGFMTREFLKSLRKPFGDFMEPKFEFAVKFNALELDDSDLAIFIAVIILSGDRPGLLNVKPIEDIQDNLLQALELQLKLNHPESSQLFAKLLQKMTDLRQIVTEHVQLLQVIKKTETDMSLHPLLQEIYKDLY
Sequence (Q15788 whole entry, further chain): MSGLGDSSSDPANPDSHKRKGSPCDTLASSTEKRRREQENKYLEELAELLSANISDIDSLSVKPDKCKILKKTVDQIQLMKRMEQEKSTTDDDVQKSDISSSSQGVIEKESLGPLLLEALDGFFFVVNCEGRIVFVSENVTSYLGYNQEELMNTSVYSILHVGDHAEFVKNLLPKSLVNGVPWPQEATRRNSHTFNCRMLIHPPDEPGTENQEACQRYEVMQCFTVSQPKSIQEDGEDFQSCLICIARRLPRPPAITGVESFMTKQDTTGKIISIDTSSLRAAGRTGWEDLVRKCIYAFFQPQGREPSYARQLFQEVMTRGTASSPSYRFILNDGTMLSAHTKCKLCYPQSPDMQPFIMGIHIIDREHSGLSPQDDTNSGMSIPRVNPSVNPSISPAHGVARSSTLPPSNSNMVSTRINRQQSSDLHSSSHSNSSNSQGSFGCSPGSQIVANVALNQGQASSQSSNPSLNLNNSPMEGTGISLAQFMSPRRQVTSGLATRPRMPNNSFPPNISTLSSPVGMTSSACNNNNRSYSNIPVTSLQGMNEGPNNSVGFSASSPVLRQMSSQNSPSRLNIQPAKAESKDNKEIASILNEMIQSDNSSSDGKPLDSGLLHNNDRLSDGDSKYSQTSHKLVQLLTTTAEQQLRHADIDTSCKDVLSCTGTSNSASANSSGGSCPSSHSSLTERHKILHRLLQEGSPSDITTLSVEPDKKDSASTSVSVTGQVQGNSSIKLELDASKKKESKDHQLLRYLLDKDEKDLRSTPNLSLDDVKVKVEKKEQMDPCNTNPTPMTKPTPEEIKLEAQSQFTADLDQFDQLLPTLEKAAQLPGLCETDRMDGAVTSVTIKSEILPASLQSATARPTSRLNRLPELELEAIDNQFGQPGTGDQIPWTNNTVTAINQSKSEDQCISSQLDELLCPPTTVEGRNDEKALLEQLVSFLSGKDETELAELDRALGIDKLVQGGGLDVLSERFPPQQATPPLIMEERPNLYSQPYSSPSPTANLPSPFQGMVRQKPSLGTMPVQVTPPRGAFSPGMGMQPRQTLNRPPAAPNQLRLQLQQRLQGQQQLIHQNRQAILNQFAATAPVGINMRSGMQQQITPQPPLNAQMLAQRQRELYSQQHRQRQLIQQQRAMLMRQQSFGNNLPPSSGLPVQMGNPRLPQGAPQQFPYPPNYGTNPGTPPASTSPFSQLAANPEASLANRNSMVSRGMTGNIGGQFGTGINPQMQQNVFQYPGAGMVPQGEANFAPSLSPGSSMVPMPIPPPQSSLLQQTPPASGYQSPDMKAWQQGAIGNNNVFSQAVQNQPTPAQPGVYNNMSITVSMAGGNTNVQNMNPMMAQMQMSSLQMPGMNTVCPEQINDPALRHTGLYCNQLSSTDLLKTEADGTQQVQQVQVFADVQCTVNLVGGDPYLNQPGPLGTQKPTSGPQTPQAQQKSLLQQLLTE
MEASUREMENT NOTES: TR-FRET dose response biochemical High Throughput Screening assay for agonists of the steroid receptor coactivator 1 (SRC-1) recruitment by the peroxisome proliferator-activated receptor gamma (PPAR gamma): non-selective agonists. [Related pubchem assays (depositor defined):AID1300, AID1808, AID504735, AID631]
Type: protein assay
Activity calls are given as the source filed them.

Data request: Give the reported EC50 for this compound. CCn1c(=O)cc(SCC(=O)N2CCN(C)CC2)c2ccccc21
Data returned: > 79.4 µM (inactive)

Data request: Give the reported EC50 for this compound. Cn1c(=O)cc(SCC(=O)Nc2cccnc2)c2ccccc21
Data returned: > 79.4 µM (inactive)

Data request: Give the reported EC50 for this compound. CC(=O)N1N=C(c2ccc(Br)cc2)CC1c1cn(C)c2ccccc12 (centres undefined)
Data returned: 18.5 µM (inactive)

Data request: Give the reported EC50 for this compound. Nc1ccccc1-c1nnc(S)s1
Data returned: 14.9 µM (inactive)

----------
// Cytochrome P450 2C9 (Homo sapiens, UniProt P11712) AC50 records
MEASUREMENT TYPE: AC50

CCCN(CCC)CCc1c[nH]c2ccc(C(N)=O)cc12 ... inconclusive
O=C(NNC(=O)c1ccccc1-n1cccc1)c1ccc(Cl)c(Cl)c1 ... inconclusive
CCCCN1CCC(CCC(=O)c2cc(Cl)c(N)cc2OC)CC1 ... inconclusive
CN(CCCNC(=O)C1CCN(S(=O)(=O)c2cccc3nsnc23)CC1)Cc1ccccc1 ... inconclusive

----------
MEASUREMENT NOTES: HEp-2 cell cytotoxicity, dose response, cytotoxicity control for RSV inhibitor project, HTS (AID 2410)
Type: functional
CONDITION: human respiratory syncytial virus
Activity calls are given as the source filed them.
MEASUREMENT TYPE: CC50

Data request: Give the reported CC50 for this molecule. CC/N=c1\scc(C)n1/N=C/c1cc(Br)c(O)c(Br)c1
Data returned: 13.3 µM (active)

Data request: Give the reported CC50 for this molecule. Cc1ccc(-c2nn(-c3ccccc3)cc2CSC(=N)N)cc1
Data returned: 14.9 µM (active)

Data request: Give the reported CC50 for this molecule. O=[N+]([O-])c1ccccc1S(=O)(=O)Nc1cccc(-c2ccc(N3CCCC3)nn2)c1
Data returned: 40.6 µM (active)

Data request: Give the reported CC50 for this molecule. Cc1nc(NC(=O)CC(C)C)sc1-c1csc(Nc2ccc(Cl)cc2Cl)n1
Data returned: 22.9 µM (active)

Data request: Give the reported CC50 for this molecule. O=C(Nc1ccccc1N1CCCC1)C1CCN(S(=O)(=O)c2ccccc2C(F)(F)F)CC1
Data returned: > 50 µM (active)

----------
ASSAY SYSTEM: Cytochrome P450 3A4 (Homo sapiens, UniProt P08684);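 also: confirmatory qHTS run detecting inhibitors and substrates of CYP3A4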
CONDITION: Potency
MEASUREMENT TYPE: AC50

Data request: Give the reported AC50 for this compound. S=C(NC1CCCCC1)NC1CCCCC1
Data returned: 25.1 µM (inconclusive)

Data request: Give the reported AC50 for this compound. NC(=O)CNCCC(c1ccccc1)c1ccccc1
Data returned: 15.8 µM (inconclusive)

Data request: Give the reported AC50 for this compound. COc1cc(/C=C/C(=O)N2CCC=CC2=O)cc(OC)c1OC [PIPLARTINE]
Data returned: 0.0501 µM (inconclusive)

Data request: Give the reported AC50 for this compound. Cc1nc(NC2CCCCC2)c2nc(-c3ccccc3)n(CCN3CCCC3)c2n1
Data returned: 25.1 µM (inconclusive)

----------
ASSAY SYSTEM: Fatty acid synthase (Homo sapiens, UniProt P49327)
MEASUREMENT NOTES: FAS thioesterase domain inhibitors, dose response, biochemical, endpoint fluorescence intensity, uHTS hits (AID 624327);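 also: fluorescence from hydrolysis of an O-methyl fluorescein acyl ester substrate by the enzyme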
Type: functional
Calls of active or inactive are those of the source.
Select the matching outcome among active, inactive

Data request: Returns: the outcome recorded for Cc1ccc([N+](=O)[O-])cc1NC(=O)CCc1ccccc1 in this assay.
Data returned: active

Data request: Returns: the outcome recorded for Cc1cc(C)c(C(=O)COC(=O)c2cc([N+](=O)[O-])ccc2NCCO)cc1C in this assay.
Data returned: active

Data request: Returns: the outcome recorded for O=[N+]([O-])c1ccc(C(O)C(CO)N=C(S)Nc2ccccc2)cc1 (stereo not given) in this assay.
Data returned: inactive

Data request: Returns: the outcome recorded for O=[N+]([O-])c1c(NCCCO)cc(Sc2nc3ccccc3s2)c2nonc12 in this assay.
Data returned: active

Data request: Returns: the outcome recorded for Cc1ccc(O)c(NC(=O)c2cc([N+](=O)[O-])ccc2Cl)c1 in this assay.
Data returned: active

These data points were gathered from ChEMBL document CHEMBL1201862.
